The measurements presented in this section are drawn from ChEMBL document CHEMBL4828725.

# Test system: Penicillium decumbens
# Method Description: Inhibition of Penicillium decumbens alpha-L-rhamnosidase using p-nitrophenyl glycoside as substrate assessed as release of p-nitrophenol at 1000 uM measured by spectrometric assay relative to control
Where inhibition equals or exceeds 1%, the correct label is TRUE; where it does not, the label is FALSE.

[[record]]
chem_smiles = "CCCCCCCCCCCC[C@@]1(CO)NC[C@H](O)[C@@H](O)[C@@H]1O.Cl"
answer_label = "TRUE"

[[record]]
chem_smiles = "C[C@]1(CO)NC[C@H](O)[C@@H](O)[C@@H]1O.Cl"
answer_label = "TRUE"

[[record]]
chem_smiles = "CCCCC[C@]1(CO)NC[C@H](O)[C@@H](O)[C@@H]1O.Cl"
answer_label = "FALSE"

[[record]]
chem_smiles = "CCCCCCCC[C@]1(CO)NC[C@H](O)[C@@H](O)[C@@H]1O.Cl"
answer_label = "TRUE"

[[record]]
chem_smiles = "CCCCCCCCCC[C@]1(CO)NC[C@H](O)[C@@H](O)[C@@H]1O.Cl"
answer_label = "FALSE"

[[record]]
chem_smiles = "CC[C@@]1(CO)NC[C@H](O)[C@@H](O)[C@@H]1O.Cl"
answer_label = "FALSE"

[[record]]
chem_smiles = "CCCC[C@@]1(CO)NC[C@H](O)[C@@H](O)[C@@H]1O.Cl"
answer_label = "TRUE"

[[record]]
chem_smiles = "CCCCCCCCC[C@@]1(CO)NC[C@H](O)[C@@H](O)[C@@H]1O.Cl"
answer_label = "TRUE"

[[record]]
chem_smiles = "C[C@@]1(CO)NC[C@H](O)[C@@H](O)[C@@H]1O.Cl"
answer_label = "FALSE"


Below: the item to evaluate.
Input line: Would you say `CCCCCCCC[C@@]1(CO)NC[C@H](O)[C@@H](O)[C@@H]1O.Cl` shows inhibition at minimum 1%?
Output line: TRUE

====

# Method Description: Inhibition of Aspergillus niger amyloglucosidase using p-nitrophenyl glycoside as substrate assessed as release of p-nitrophenol measured by spectrometric assay
Observation Type: IC50

These solved cases illustrate the format of a correct answer.
[[record]]
chem_smiles = "CCCCCCCCCC[C@@]1(CO)NC[C@H](O)[C@@H](O)[C@@H]1O.Cl"
observation_type = "IC50"
recorded_measurement = "Not Active"

[[record]]
chem_smiles = "CCCCCCCCCCCC[C@]1(CO)NC[C@H](O)[C@@H](O)[C@@H]1O.Cl"
observation_type = "IC50"
recorded_measurement = "Not Active"

[[record]]
chem_smiles = "OC[C@@H]1NC[C@H](O)[C@@H](O)[C@@H]1O"
observation_type = "IC50"
recorded_measurement = "Not Active"

[[record]]
chem_smiles = "C[C@@]1(CO)NC[C@H](O)[C@@H](O)[C@@H]1O.Cl"
observation_type = "IC50"
recorded_measurement = "Not Active"

[[record]]
chem_smiles = "CCCCCCCCCCC[C@]1(CO)NC[C@H](O)[C@@H](O)[C@@H]1O.Cl"
observation_type = "IC50"
recorded_measurement = "Not Active"

[[record]]
chem_smiles = "CCCCCCCCCCCC[C@@]1(CO)NC[C@H](O)[C@@H](O)[C@@H]1O.Cl"
observation_type = "IC50"
recorded_measurement = "Not Active"


For record `CCC[C@@]1(CO)NC[C@H](O)[C@@H](O)[C@@H]1O.Cl` the listed IC50 is Not Active

Please fill in: IC50 reported for `CCCCCCCCCCC[C@@]1(CO)NC[C@H](O)[C@@H](O)[C@@H]1O.Cl` = Not Active
